As shown below, each of these compounds has a reported cell viability value.
- Test system: P12-Ichikawa
- Assay procedure: cell viability relative to DMSO control; higher = less cytotoxic
- Recorded conditions: HPLM + 10% dialyzed FBS; 48 h; 0.569 µM
# value in %; strip the unit string

Form field: reported cell viability of `NC[C@H]1O[C@H](O[C@@H]2[C@H](O)[C@@H](O[C@H]3O[C@H](CO)[C@@H](O)[C@H](N)[C@H]3O)[C@H](N)C[C@@H]2N)[C@H](O)[C@@H](O)[C@@H]1O`
117

Same question for `C[C@]12CC[C@H]3[C@@H](CCC4=CC(=O)CC[C@@H]43)[C@@H]1CC[C@@H]2OC(=O)CCc1ccccc1` please.
120

Same question for COc1ccc(C(=O)CC2(O)C(=O)Nc3c(Cl)ccc(Cl)c32)cc1 (centres undefined) please.
120

Same question for `Oc1nc(-c2ccc(C(F)(F)F)cc2)nc2c1CSCC2` please.
106

Same question for Cc1ccccc1C(=O)Nc1ccc(C(=O)N2CCCC(O)c3cc(Cl)ccc32)c(C)c1 (centres undefined) please.
131

Same question for `Cc1coc2c1C(=O)C(=O)c1c-2ccc2c1CCCC2(C)C` please.
93

Same question for `CN1CC(=O)N2[C@H](c3ccc4c(c3)OCO4)c3[nH]c4ccccc4c3C[C@@H]2C1=O` please.
101

Same question for `Cc1cc2c(C(N)=O)cccc2n1-c1nc2c(c(NCc3ccccc3)n1)COCC2` please.
78.4

Same question for CC(C(=O)O)c1ccc2c(c1)CC(=O)c1ccccc1S2 (centres undefined) please.
115
